Data credit: patent US4024277A

# key: entry, value: % Knockdown
- Test system: house flies
- Experiment description: Level I immersion test, house flies
- Assay type: in vivo, Musca domestica Linnaeus
- Conditions: HF, 5 mg/milliliter, 10 minutes after immersion
Just the number please, in %, no unit attached.

Example cases with answers are listed next.
>>> df
                                test_smiles  assayed_target  value
0  CC(C)OP(=O)(OC(C)C)N(C)SN(C)C(=O)Oc1cccc2c1OC(C)(C)C2     house flies    100
1  CCCOP(=O)(OCCC)N(CCC)SN(C)C(=O)Oc1cccc2c1OC(C)(C)C2     house flies    100
2  CCN(SN(C)C(=O)Oc1cccc2c1OC(C)(C)C2)P(=O)(OC)OC     house flies    100
3  CCCOP(=O)(OCCC)N(C)SN(C)C(=O)Oc1cccc2c1OC(C)(C)C2     house flies    100

# % Knockdown lookup, item CCOP(=O)(OCC)N(C)SN(C)C(=O)Oc1cccc2c1OC(C)(C)C2 100

# % Knockdown lookup, item CCOP(=O)(OCC)N(CC)SN(C)C(=O)Oc1cccc2c1OC(C)(C)C2 100

# % Knockdown lookup, item CCCN(SN(C)C(=O)Oc1cccc2c1OC(C)(C)C2)P(=O)(Oc1ccccc1)Oc1ccccc1 40

* * *

- Tested on: Mexican bean beetle
- Experiment description: Systemic insecticidal activity (soil/water), Mexican bean beetle
- Assay type: in vivo, Epilachna varivestis Mulsant
- Conditions: Epilachna varivestis, 10 ppm, 48-hour exposure, read-out: % Kill, Mexican Bean Beetle
Quantity name: mortality at 10 ppm (%)
Just the number please, in %, no unit attached.

In [3]: df
Out[3]:
                                test_smiles       assayed_target        quantity_name  value
0  CCOP(=O)(OCC)N(CCc1ccccc1)SN(C)C(=O)Oc1cccc2c1OC(C)(C)C2  Mexican bean beetle  mortality at 10 ppm      0
1  CCCOP(=O)(OCCC)N(C)SN(C)C(=O)Oc1cccc2c1OC(C)(C)C2  Mexican bean beetle  mortality at 10 ppm     20
2  CCCOP(=O)(OCCC)N(CCC)SN(C)C(=O)Oc1cccc2c1OC(C)(C)C2  Mexican bean beetle  mortality at 10 ppm     44

Now for the compound whose mortality at 10 ppm we want.
# mortality at 10 ppm lookup, item CCCN(SN(C)C(=O)Oc1cccc2c1OC(C)(C)C2)P(=O)(OCC)OCC 7

* * *

- System: pea aphid
- Experiment description: Initial insecticidal activity, pea aphid
- Type: in vivo, Acyrthosiphon pisum (Harris)
- Conditions: Acyrthosiphon pisum, 39 ppm, 48-hour exposure, read-out: % Kill, Pea Aphid
- Excerpt: a. Initial Insecticidal Activity In this test, a candidate insecticide, in solution, is applied to either infested or uninfested plants or containers by spraying or dipping. […]
Quantity name: mortality at 39 ppm (%)
Just the number please, in %, no unit attached.

                                test_smiles        quantity_name  unit_symbol  value
0  CC(C)OP(=O)(OC(C)C)N(C)SN(C)C(=O)Oc1cccc2c1OC(C)(C)C2  mortality at 39 ppm            %     28
1  CCCOP(=O)(OCCC)N(C)SN(C)C(=O)Oc1cccc2c1OC(C)(C)C2  mortality at 39 ppm            %     86
2  CCOP(=O)(OCC)N(C)SN(C)C(=O)Oc1cccc2c1OC(C)(C)C2  mortality at 39 ppm            %      0
3  CCCN(SN(C)C(=O)Oc1cccc2c1OC(C)(C)C2)P(=O)(OCC)OCC  mortality at 39 ppm            %     33
4  CCCN(SN(C)C(=O)Oc1cccc2c1OC(C)(C)C2)P(=O)(Oc1ccccc1)Oc1ccccc1  mortality at 39 ppm            %     11
5  CCCOP(=O)(OCCC)N(CCC)SN(C)C(=O)Oc1cccc2c1OC(C)(C)C2  mortality at 39 ppm            %     31
6  CCOP(=O)(OCC)N(CC)SN(C)C(=O)Oc1cccc2c1OC(C)(C)C2  mortality at 39 ppm            %      0
7  CCOP(=O)(OCC)N(CCc1ccccc1)SN(C)C(=O)Oc1cccc2c1OC(C)(C)C2  mortality at 39 ppm            %      0

Now for the molecule whose mortality at 39 ppm we want.
# mortality at 39 ppm lookup, item CCN(SN(C)C(=O)Oc1cccc2c1OC(C)(C)C2)P(=O)(OC)OC 0
